- Assay Overview: NCI Yeast Anticancer Drug Screen. Data for the bub3 strain (AID 167)
- Conditions Used: S. cerevisiae bub3 mutant strain, at 50.0 µM, stronger effect = higher value
Compounds without any hit were thinned out: in the full panel of roughly 79,000, 15% have a hit.
# growth inhibition per entry
The answer is to be given in %; state only the numeric part.

Here is how some molecules turned out for growth inhibition.
- Molecule: "CCOC(CNC(=O)c1ccc(S(=O)(=O)F)cc1)OCC"
  Output Unit: "%"
  growth inhibition: 42.8
- Molecule: "Cc1sc2cccc[n+]2c1C"
  Output Unit: "%"
  growth inhibition: -3.4
- Molecule: "c1cc[c]([Sn]2([c]3ccccc3)[O]CCNCC[O]2)cc1"
  Output Unit: "%"
  growth inhibition: -48.7
- Molecule: "COc1cc2c(c(OC)c1OC)-c1ccc(O)cc1C(NC(C)=O)CC2 (stereo not drawn)"
  Output Unit: "%"
  growth inhibition: 0.65
- Molecule: "CCNP(=S)(OCC)OCC"
  Output Unit: "%"
  growth inhibition: -2.7

**Q:** Form field: reported growth inhibition of O=[N+]([O-])c1cc(Cl)ccc1S(=O)(=O)F
**A:** 99.5

**Q:** Similarly, C[n+]1ccccc1-c1ccc[n+](CCCC[n+]2cccc(-c3cccc[n+]3C)c2)c1 ?
**A:** -8.65

**Q:** Similarly, C[N+](C)(C)CCNP(=O)(Oc1ccccc1)c1ccccc1 (stereo not drawn) ?
**A:** -1.55

----------
- Assay Overview: NCI Yeast Anticancer Drug Screen. Data for the sgs1 mgt1 strain (AID 161);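 further: 0% = growth of cultures given vehicle only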
- Conditions Used: S. cerevisiae sgs1 mgt1 strain, at 50.0 µM, stronger effect = higher value
Compounds without any hit were thinned out: in the full panel of roughly 79,000, 15% have a hit.
# growth inhibition per entry
The answer is to be given in %; state only the numeric part.

- Compound: "C/C=C/CC1(c2ccccc2)C(=O)NC(=S)NC1=O"
  Observed Property: "growth inhibition"
  Assay Value: 6.3
- Compound: "[CH3][Sb]([CH3])([CH3])([O]C(=O)C(Cl)Cl)[O]C(=O)C(Cl)Cl"
  Observed Property: "growth inhibition"
  Assay Value: 15.3
- Compound: "O=[N+]([O-])c1ccc(C2C3CC4C(OOC42)C3I)cc1 (configuration not stated)"
  Observed Property: "growth inhibition"
  Assay Value: 32.8
- Compound: "[Co+2].[Co+2].[O-]CCCN=Cc1ccccc1[O-].[O-]CCCN=Cc1ccccc1[O-]"
  Observed Property: "growth inhibition"
  Assay Value: 60.8
- Compound: "CC12CCC(O)CC1CCC1C2CCC2(C)C(c3ccc(=O)oc3)CC3OC312 (configuration not stated)"
  Observed Property: "growth inhibition"
  Assay Value: 66.5
- Compound: "C[CH2][Sn]([Cl])([CH2]C)[CH2]C"
  Observed Property: "growth inhibition"
  Assay Value: 97.3
- Compound: "CS(=O)(=O)OCCN(CCCl)c1cc(C(N)=O)c([N+](=O)[O-])cc1[N+](=O)[O-]"
  Observed Property: "growth inhibition"
  Assay Value: 5.45
- Compound: "CCC1=C(CC2NCCc3cc(OC)c(OC)cc32)CC2c3ccccc3CCN2C1 (configuration not stated)"
  Observed Property: "growth inhibition"
  Assay Value: -42.7

**Q:** Form field: reported growth inhibition of C=CP(=O)(OCCCl)OCCCl
**A:** 2.3

**Q:** Similarly, O=[N+]([O-])NC1=NCCN1CCO ?
**A:** -2.15

**Q:** Similarly, CC12CCC(OC3OC(CO)C(OC4OC(CO)C(O)C(O)C4O)C(O)C3O)CC1CCC1C2CCC2(C)C(C3=CC(=O)OC3)CCC12O (configuration not stated) ?
**A:** -14.2

**Q:** Similarly, CCOC(=O)C[CH2][Sn]([Cl])([Cl])[Cl] ?
**A:** 21.1

**Q:** Similarly, COc1cc2[nH]cc(CN(C)C)c2cc1OC ?
**A:** -11.2

----------
# growth inhibition per entry
- Assay Overview: NCI Yeast Anticancer Drug Screen. Data for the mec2-1 strain (AID 157)
- Conditions Used: S. cerevisiae mec2-1 strain, at 50.0 µM, stronger effect = higher value
About 79,000 compounds went through this panel and 15% of them were active in at least one assay; those are over-represented in the sample as a whole. Calls of active or inactive are those of the source. No stated cut-off is given here; in the data, active means growth inhibition above about 70%; inactive means the rest.

Here is how some compounds turned out for growth inhibition.
- Compound: "CCCC(C)c1ccc(SOO)cc1.[Fe] (stereo unspecified)"
  Observed Property: "growth inhibition"
  Assay Value: "4.05% (inactive)"
- Compound: "CN1CCN(C)C(N2CCOCC2)C(C)(C)C1 (stereo unspecified)"
  Observed Property: "growth inhibition"
  Assay Value: "-4.2% (inactive)"
- Compound: "O=c1oc2ccccc2c(O)c1C(c1cnc2ccccc2c1)c1c(O)c2ccccc2oc1=O"
  Observed Property: "growth inhibition"
  Assay Value: "40.2% (inactive)"
- Compound: "C=C(C)C(=O)OCC12CCC(C)=CC1OC1C(=O)C(OC(=O)C(=C)C)C2(C)C12CO2 (stereo unspecified)"
  Observed Property: "growth inhibition"
  Assay Value: "19.9% (inactive)"
- Compound: "O=C1C2CCC(C2)[CH]1[Hg][Cl] (stereo unspecified)"
  Observed Property: "growth inhibition"
  Assay Value: "99.7% (active)"

We now examine a further compound.
**Q:** Form field: reported growth inhibition of CC(NC1=NCCO1)c1ccccc1Cl (stereo unspecified)
**A:** -29% (inactive)

----------
- Assay Overview: NCI Yeast Anticancer Drug Screen. Data for the rad50 strain (AID 155);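 further: 0% = growth of vehicle-only cultures of the same strain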
- Conditions Used: S. cerevisiae rad50 strain growth inhibition; at 50.0 µM; stronger effect = higher value
- Experimental: Growth inhibition of yeast strains with defined genetic alterations is measured as a screen for potential anti-cancer activity. Selected strains with alterations in DNA damage repair or cell cycle control were exposed to compounds and growth inhibition was measured relative to vehicle treated controls. The strain used in this assay is rad50
About 79,000 compounds went through this panel and 15% of them were active in at least one assay; those are over-represented in the sample as a whole.
Record True whenever growth inhibition is at 20% or higher; record False when lower.

Use the examples below as a reference point.
- Compound: "C1CC2CCC(N3CCCC3)C(C1)C21OCCO1 (stereo not drawn)"
  Group Label: "False"
- Compound: "O=C([O-])Cc1ccccc1.O=[N+]([O-])O.[Co+3].[NH2-].[NH2-].[NH2-].[NH2-].[NH2-]"
  Group Label: "False"

**Q:** Hi team, for NC(=O)C(F)(F)Cl , is the recorded growth inhibition at or above 20%?
**A:** False

**Q:** Similarly, C[C@]12CCNC(=O)C=C1CC[C@@H]1C2CC[C@@]2(C)C1CC[C@@H]2OC(=O)COc1ccc(N(CCCl)CCCl)cc1 (stereo partly drawn) ?
**A:** True

**Q:** Similarly, CC([NH-])C[NH-].CC([NH-])C[NH-].[Co].[NH2-].[NH2-] (stereo not drawn) ?
**A:** False

**Q:** Similarly, CC1=C(O)C(=O)C=C2C1=CC=C1[C@@]2(C)CC[C@@]2(C)[C@@H]3C[C@](C)(C(=O)O)CC[C@]3(C)CC[C@]12C ?
**A:** True

**Q:** Similarly, N#C[C@H](OC1OC(COC2OC(CO)C(O)C(O)C2O)C(O)C(O)C1O)c1ccccc1 (stereo partly drawn) ?
**A:** False

----------
- Assay Overview: NCI Yeast Anticancer Drug Screen. Data for the mlh1 rad18 strain (AID 175)
- Conditions Used: S. cerevisiae mlh1 rad18 strain growth inhibition; at 50.0 µM
- Method: Growth inhibition of yeast strains with defined genetic alterations is measured as a screen for potential anti-cancer activity. Selected strains with alterations in DNA damage repair or cell cycle control were exposed to compounds and growth inhibition was measured relative to vehicle treated controls. The strain used in this assay is mlh1 rad18
The panel holds about 79,000 compounds, 15% with a hit somewhere; the sample as a whole holds those more often. The source made the active and inactive calls. Rule as the data show it: active = growth inhibition above about 70%; inactive = the rest.
In this exercise, the only acceptable responses are active, inactive

- Compound: "ClCCN(CCCl)c1ccc(-c2csc(Cc3ccccc3)n2)cc1"
  Group Label: "inactive"
- Compound: "O=C(N/N=C/c1cc(Br)cc(Br)c1[O-])c1ccccc1O.O=C(N/N=C/c1cc(Br)cc(Br)c1[O-])c1ccccc1O.[Cl-].[Fe+3]"
  Group Label: "inactive"
- Compound: "CN1CC(C(=O)NO)C=C2c3cccc4[nH]cc(c34)CC21 (stereo not drawn)"
  Group Label: "inactive"
- Compound: "c1ccc2c(c1)cc1ccc3cccc4ccc2c1c34"
  Group Label: "inactive"
- Compound: "CC(C)CNP(=S)(NCC(C)C)c1ccccc1"
  Group Label: "inactive"

**Q:** Assay result, entry C1CCNCC1.O=C([CH-]C(=O)C(F)(F)F)c1ccc2c(c1)C(=O)c1ccccc1-2.O=C([CH-]C(=O)C(F)(F)F)c1ccc2c(c1)C(=O)c1ccccc1-2.O=C([CH-]C(=O)C(F)(F)F)c1ccc2c(c1)C(=O)c1ccccc1-2.O=C([CH-]C(=O)C(F)(F)F)c1ccc2c(c1)C(=O)c1ccccc1-2.[Eu+3] — outcome?
**A:** inactive

**Q:** Similarly, CCOP(=O)(OCC)C(N)Cc1ccc(OC)c(OC)c1 (stereo not drawn) ?
**A:** inactive

**Q:** Similarly, CC(=O)OC1(C)CC(C)C(=O)C(C(O)CC2CC(=O)NC(=O)C2)C1 (stereo not drawn) ?
**A:** active

Values compiled from PubChem BioAssay (NCI).
